# Measurement Notes: Viability Counterscreen for CMV-Luciferase Assay of Inhibitors of ATXN expression; note: nearly all actives have a fitted effect of over 55% in size
# Recorded Conditions: HEK-293 CMV-luciferase cells viability, protease fluorescence, 24 h
Screen size: about 2,100 compounds; about 320 (15%) were called active. About 52% were inconclusive and are not listed. Calls come from the whole dose curve; as a rule, active = well fitted cell-killing curve with a large enough effect; inconclusive = small, poorly fitted or top-dose-only effect, or effect the other way; inactive = flat fitted curve, though single readings scatter. Some of the results follow.
Please reply with one of these outcomes: active, inactive

- O=c1c2c(nc3c(-c4ccc(Cl)cc4)c[nH]n13)CCC2: inactive
- O=C(NCc1cc(C(F)(F)F)ccc1Cl)c1cccc2c1C(=O)c1ccc(N3CCOCC3)cc1S2(=O)=O: inactive
- CCOc1ccc(NCc2cccn2-c2nnc(N3CCC(C(=O)NCCCN4CC(C)CC(C)C4)CC3)s2)cc1 (centres undefined): inactive
- Cc1sc2cc3c(c(C(=O)c4ccccc4)[n+]2c1C)-c1cccc2cccc-3c12: active
- COC(=O)C1=C(C)N(Cc2ccccc2)C(=NCCc2cccnc2)N[C@H]1c1ccc(Br)cc1: active
- Oc1ccc2ccccc2c1/C=C/c1ccc2c(Br)cc(Br)c(O)c2n1: inactive
- Cc1ccc(-c2csc(N3CCN(c4cc5c(cc4Cl)nc(-c4ccncc4)n5CCOCCO)CC3)n2)cc1: inactive
- COc1ccc(Br)cc1C(=O)Nc1ccccc1N1CCN(C(=O)c2ccccc2)CC1: inactive

What was the test verdict on CCc1cc(-c2[nH]ncc2-c2ccc(OC)cc2)c(O)cc1O ?
inactive

###

# Measurement Notes: Viability Counterscreen for CMV-Luciferase Assay of Inhibitors of ATXN expression; note: nearly all actives have a fitted effect of over 55% in size; note: potency is the fitted concentration of half-maximal effect
# Recorded Conditions: HEK-293 CMV-luciferase cells viability, protease fluorescence, 24 h
Among all 2,100 compounds or so, about 320 (15%) were called active. Inconclusive results (about 52%) are left out. This is one part of the list.
Endpoint Name: Potency

Solved cases (6 shown):
• O=C(c1ccoc1)N1CCN(c2cc(-c3ccco3)nc3cc(-c4ccccc4)nn23)CC1 = inactive
• O=c1[nH]c(CN2CCN(c3ncccn3)CC2)nc2c(Br)cc(Br)cc12 = inactive
• CCCN(CCC)S(=O)(=O)c1ccc(C(=O)Nc2nnc(-c3cc(OC)cc(OC)c3)o2)cc1 = 7.08 µM (active)
• COc1ccc(Cc2nnc(N/N=C/c3ccccc3O)[nH]c2=O)cc1OC = 5.62 µM (active)
• CCCCOc1ccccc1NC(=O)c1scc2c1OCCO2 = inactive
• N#C/C(=N\Nc1cccc([N+](=O)[O-])c1)C(=O)c1ccc(Br)cc1 = 2.24 µM (active)

// query Potency value for entry OC(c1cc(F)cc(Cl)c1)c1ncc(-c2cccc(C(F)(F)F)c2)[nH]1 (configuration not stated)
inactive

// same read-out, input: Cc1cc(C)n(CC(O)Cn2c3ccc(Cl)cc3c3cc(Cl)ccc32)c(=O)n1 (configuration not stated)
inactive

// same read-out, input: COc1ccc(-c2nnc(NC(=O)c3ccc(S(=O)(=O)N4COCC4(C)C)cc3)o2)cc1
inactive

// same read-out, input: CC(=O)c1ccc(C(=O)Nc2nnc(-c3ccc(Cl)cc3)o2)cc1
inactive

// same read-out, input: Brc1cnc2nc(SCc3nc4ccccc4[nH]3)[nH]c2c1
inactive

// same read-out, input: O=C(CSc1nnc(-c2ccccc2)o1)Nc1ccccc1F
inactive

###

# Measurement Notes: Viability Counterscreen for CMV-Luciferase Assay of Inhibitors of ATXN expression; note: nearly all actives have a fitted effect of over 55% in size
# Recorded Conditions: HEK-293 CMV-luciferase cells viability, protease fluorescence, 24 h
# Description: PI: Daniel Scoles Ph.D. University of Utah School of Medicine, Salt Lake City, Utah MLPCN Grant: NS073009 Spinocerebellar ataxia type 2 (SCA2) is a multisystem neurodegenerative disease caused by a dominantly acting mutation leading to expansion of a polyQ domain in the ataxin-2 protein (ATXN2). SCA2 patients develop progressive ataxia and later lose function in other neuronal systems. […] Here we describe a 5-7 dose quantitative high thoroughput screen (qHTS) for compounds lowering ATXN2 expression. […]
The whole screen tested about 2,100 compounds, of which about 320 (15%) were called active. About 52% were inconclusive and are not listed. Calls come from the whole dose curve; as a rule, active = well fitted cell-killing curve with a large enough effect; inconclusive = small, poorly fitted or top-dose-only effect, or effect the other way; inactive = flat fitted curve, though single readings scatter. This is one part of the list.
Please reply with one of these outcomes: active, inactive

• Cc1nc(SC2CC(=O)N(c3ccccc3)C2=O)n[nH]1 (configuration not stated) = inactive
• Nc1nc(NCCCN2CCOCC2)nc(Nc2cccc(Cl)c2)c1[N+](=O)[O-] = inactive
• Cc1onc(-c2c(F)cccc2Cl)c1C(=O)Nc1nnc(C(F)(F)F)s1 = inactive
• Cc1cc(C)cc(OCC(=O)NNC(=S)NC(=O)C2CC2)c1 = inactive
• CN(C)c1nc(N/N=C/c2c[nH]c3ccccc23)nc(N2CCOCC2)n1 = inactive
• COc1ccc(-c2sc3ccc(OC)cc3c2-c2ccc(O)cc2)cc1 = inactive

What was the test verdict on CCn1c(-c2ccc(C)cc2)nn(CC(=O)NCCc2ccccc2)c1=S ?
inactive

// same read-out, input: COc1cc(C)c(C(=O)CC(=O)c2c(C)cc(OC)cc2C)c(C)c1
inactive

// same read-out, input: c1ccc(-c2sc3ccccc3c2-c2ccc(OCCN3CCCC3)cc2)cc1
active

// same read-out, input: Cc1nn(-c2ccccc2)c2nc(-c3cccs3)cc(C(=O)NN)c12
inactive

// same read-out, input: Cc1[nH]c(=O)c(C(=O)/C=C/c2ccccc2)c2c1CCCC2
active

// same read-out, input: OCC1(CCOc2ccccc2)CCN(CC2=Cc3cc(Cl)ccc3OC2)CC1
inactive

// same read-out, input: COc1ccc(-c2cc(C3CCN(c4ccc(C(C)=O)cc4[N+](=O)[O-])CC3)[nH]n2)cc1
active

// same read-out, input: C/C(=N\NC(=O)C(C)n1nc(C)c([N+](=O)[O-])c1C)c1ccccc1O (configuration not stated)
inactive

// same read-out, input: O=C(C(Br)=Cc1ccccc1)c1ccccc1
active

// same read-out, input: COc1cccc(-c2sc3ccccc3c2-c2ccc(OCCN3CCCC3)cc2)c1
inactive

// same read-out, input: Cc1nc2ccccc2n1-c1nc(-c2ccco2)cc(C(F)(F)F)n1
active

// same read-out, input: Cn1c(=O)c2cc(NC(=O)Nc3cccnc3)ccc2n1Cc1ccc(Cl)cc1
inactive

// same read-out, input: O=C1CCCC(O)=C1C=NCc1ccccc1
inactive

// same read-out, input: COc1ccccc1-c1ccc2c(c1)C(C)(Cc1cccc(F)c1)C(=O)N2 (configuration not stated)
inactive

// same read-out, input: NC(=O)c1cc([N+](=O)[O-])ccc1NCc1ccc(N)cc1
active

// same read-out, input: CCn1c(C)nc2cc(C(=O)N/N=C(\C)c3ccc(OC)cc3O)ccc21
inactive

###

# Measurement Notes: Viability Counterscreen for CMV-Luciferase Assay of Inhibitors of ATXN expression; note: nearly all actives have a fitted effect of over 55% in size
# Recorded Conditions: HEK-293 CMV-luciferase cells viability, protease fluorescence, 24 h
Screen size: about 2,100 compounds; about 320 (15%) were called active. Roughly 52% stayed inconclusive and do not appear here. The call rests on the fitted dose curve; in most records, active means well fitted cell-killing curve with a large enough effect; inconclusive means small, poorly fitted or top-dose-only effect, or effect the other way; inactive means flat fitted curve, though single readings scatter. Some of the results follow.
Please reply with one of these outcomes: 1.0 = active, 0.0 = inactive

Past entries and their recorded results:
* COc1cccc(CN(C)C(=O)c2ccc(OCC(=O)Nc3cccc(C(F)(F)F)c3)c(OC)c2)c1 | 1.0
* CCOCCn1ccc2c(OCC(=O)Nc3ccc(OC)c(OC)c3)cccc2c1=O | 0.0
* CC(O)(c1ccccc1)c1nc(-c2ccncc2)cs1 (stereo not given) | 0.0

What was the test verdict on CC(=O)c1sc(NC(=O)c2cc(-c3ccccc3)nn2-c2ccccc2)nc1C ?
0.0

// same read-out, input: COc1ccc(-c2csc(NC(=O)c3ccccc3NS(=O)(=O)c3ccc(F)c(F)c3)n2)cc1
1.0

###

# Measurement Notes: Viability Counterscreen for CMV-Luciferase Assay of Inhibitors of ATXN expression; note: nearly all actives have a fitted effect of over 55% in size
# Recorded Conditions: HEK-293 CMV-luciferase cells viability, protease fluorescence, 24 h
Out of some 2,100 compounds screened, about 320 (15%) were called active. Roughly 52% stayed inconclusive and do not appear here. Calls come from the whole dose curve; as a rule, active = well fitted cell-killing curve with a large enough effect; inconclusive = small, poorly fitted or top-dose-only effect, or effect the other way; inactive = flat fitted curve, though single readings scatter. This is one part of the list.
Please reply with one of these outcomes: TRUE = active, FALSE = inactive

Past entries and their recorded results:
• O=[N+]([O-])c1ccccc1S(=O)(=O)Nc1cccc2cccnc12 = TRUE
• O=C(N/N=C/c1cc(Br)ccc1O)c1ccncc1 = FALSE

What was the test verdict on Cc1cc(C)c(CSc2ncc(-c3ccc([N+](=O)[O-])cc3)[nH]2)c(C)c1 ?
FALSE

###

# Measurement Notes: Viability Counterscreen for CMV-Luciferase Assay of Inhibitors of ATXN expression; note: nearly all actives have a fitted effect of over 55% in size
# Recorded Conditions: HEK-293 CMV-luciferase cells viability, protease fluorescence, 24 h
About 320 (15%) of roughly 2,100 compounds were called active. About 52% were inconclusive and are not listed. Calls come from the whole dose curve; as a rule, active = well fitted cell-killing curve with a large enough effect; inconclusive = small, poorly fitted or top-dose-only effect, or effect the other way; inactive = flat fitted curve, though single readings scatter. The list shows a part of the results.
Please reply with one of these outcomes: active, inactive

What was the test verdict on CC(=O)c1cccc(-c2ccnc3c2CC(C(=O)Nc2ccc(F)c(Cl)c2)O3)c1 (stereo unspecified) ?
inactive

// same read-out, input: COc1ccc(CCCNC(=O)C2Cc3c(-c4cccc(NC(C)=O)c4)ccnc3O2)cc1 (stereo unspecified)
inactive

// same read-out, input: CCN(CC(=O)Nc1cccc(OC)c1)CC(=O)Nc1ccc(Br)c(C)c1
active

// same read-out, input: CC(=O)Nc1cccc(-c2ccnc3c2CC(C)(C(=O)Nc2ccc(Cl)c(C(F)(F)F)c2)O3)c1 (stereo unspecified)
active

// same read-out, input: C=CCc1cccc(CNc2nc3ccccc3n2C(C)C)c1O
inactive
